The entries below are paired with their reported log10(TGI).
Test system: IGROV1
Assay: NCI in vitro cancer screen, Ovarian Cancer
Format: cell-based, human
Conditions: IGROV1
measured metric: log10(TGI) (log10 of the value in µM)

[[record]]
query_smiles = "COc1cc(/C=C/c2cc(O)c(CC=C(C)C)c(O)c2)ccc1O"
measured_metric = "log10(TGI)"
test_result = 1.94

[[record]]
query_smiles = "COc1cc(/C=C/c2cc(O)cc(OC)c2CC=C(C)C)ccc1O"
measured_metric = "log10(TGI)"
test_result = 1.45

[[record]]
query_smiles = "CC(C)=CCc1c(O)cc(/C=C/c2ccc(O)cc2)c(CC=C(C)C)c1O"
measured_metric = "log10(TGI)"
test_result = 1.25

[[record]]
query_smiles = "COc1cc(/C=C/c2cc(O)cc(OCC=C(C)C)c2)ccc1O"
measured_metric = "log10(TGI)"
test_result = 1.67

[[record]]
query_smiles = "CC(C)=CCc1c(O)cc(/C=C/c2ccc(O)c(O)c2)c(CC=C(C)C)c1O"
measured_metric = "log10(TGI)"
test_result = 0.92

[[record]]
query_smiles = "CC(C)=CCOc1cc(O)cc(/C=C/c2ccc(O)c(O)c2)c1"
measured_metric = "log10(TGI)"
test_result = 1.65

